# System Under Test: T1, human glycophorin A on human red blood cells or red blood cell membranes (human, UniProt P02724 20-150)
# T1 construct: whole, on cells; also called hRBC; human RBC membranes
# T1 sequence (looked up): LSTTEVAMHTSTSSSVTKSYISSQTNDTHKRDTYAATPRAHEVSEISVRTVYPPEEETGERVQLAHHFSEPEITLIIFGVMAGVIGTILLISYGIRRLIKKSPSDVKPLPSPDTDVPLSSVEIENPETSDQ
# Protocol Notes: scFv on intact human RBC, unbound scFv by ELISA; 20 min after 200-fold dilution
// returns Not met unless percentage of input scFv antibody bound is strictly below 90%, in which case Met

# Binder, Group
rows = [
    ("TPP-7790 scFv with C-terminal 6xHIS tag (scFv) scFv: DIQLTQSPSFLSASVGDRVTITCRASSSVRYIYWFQQKPGKAPKLLIYATSFLQSGVPSRFSGSGSGTEYTLTISSLQPEDFATYYCHQRNSFPYTFGQGTKLEIKGGGGSGGGGSGGGGSGGGGSEVQLVQSGAEVKKPGASVKVSCKASGYTFTTYAIHWVRQAPGQGLEWMGYINPSSGYTRYNPKFKHRVTMTRDKSTSTAYMELRSLRSDDTAVYYCWTGTRDYWGQGTTVTVSSHHHHHH", "Not met"),
    ("TPP-7778 scFv with C-terminal 6xHIS tag (scFv) scFv: DIQLTQSPSFLSASVGDRVTITCRASSSVRYIYWFQQKPGKAPKLLIYATSTLQSGVPSRFSGSGSGTEYTLTISSLQPEDFATYYCHQRNSFPYTFGQGTKLEIKGGGGSGGGGSGGGGSGGGGSEVQLVQSGAEVKKPGASVKVSCKASGYTFTTYAIHWVRQAPGQGLEWMGYINPSSGYTRYNPKFKHRVTMTRDKSTSTAYMELRSLRSDDTAVYYCQTGTRDYWGQGTTVTVSSHHHHHH", "Met"),
    ("TPP-7793 scFv with C-terminal 6xHIS tag (scFv) scFv: DIQLTQSPSFLSASVGDRVTITCRASSSVSYIYWFQQKPGKAPKLLIYATSTLQSGVPSRFSGSGSGTEYTLTISSLQPEDFATYYCHQRNSFPYTFGQGTKLEIKGGGGSGGGGSGGGGSGGGGSEVQLVQSGAEVKKPGASVKVSCKASGYTFTRYTIHWVRQAPGQGLEWMGYINPSSGYTRYNPKFKGRVTMTRDKSTSTAYMELRSLRSDDTAVYYCWTGTRDYWGQGTTVTVSSHHHHHH", "Met"),
    ("TPP-7781 scFv with C-terminal 6xHIS tag (scFv) scFv: DIQLTQSPSFLSASVGDRVTITCRASSSVRYIYWFQQKPGKAPKLLIYATSTLQSGVPSRFSGSGSGTEYTLTISSLQPEDFATYYCHQRNSFPYTFGQGTKLEIKGGGGSGGGGSGGGGSGGGGSEVQLVQSGAEVKKPGASVKVSCKASGYTFTTYTIHWVRQAPGQGLEWMGYINPKSGWTRYNPKFKGRVTMTRDKSTSTAYMELRSLRSDDTAVYYCQTGTRDYWGQGTTVTVSSHHHHHH", "Not met"),
    ("TPP-7783 scFv with C-terminal 6xHIS tag (scFv) scFv: DIQLTQSPSFLSASVGDRVTITCRASSSVRYIYWFQQKPGKAPKLLIYATSFRRSGVPSRFSGSGSGTEYTLTISSLQPEDFATYYCHQRNSFPYTFGQGTKLEIKGGGGSGGGGSGGGGSGGGGSEVQLVQSGAEVKKPGASVKVSCKASGYTFTTYAIHWVRQAPGQGLEWMGYINPSSGYTRYNPKFKHRVTMTRDKSTSTAYMELRSLRSDDTAVYYCWTGTRDYWGQGTTVTVSSHHHHHH", "Not met"),
]
